- Tested on: Target C
- protocolText: HiBiT protein abundance assay, Target C
- Format: cell-based, human
- conditionDescription: Homo sapiens, K562, 24 h, Table 13A, modified K562 cells
Please provide measured IC50 for the entries that follow.

Request: Form: Entry = CN1CCC2(CC1)CCN2c1ccc(-c2ccc(-c3cn[nH]c3)c3ncsc23)nn1 | System = Target C | IC50 = ____
Result: > 10000 nM

Request: Provide value of IC50 for this record tested with Target C: c1nc2c(-c3cn[nH]c3)ccc(-c3cnc(N4CCNC(C5CC5)C4)nn3)c2s1 (centres unmarked)
Result: 100 to 1000 nM

Request: Lab note: need IC50 for CN(c1ccc(-c2ccc(-n3cccn3)c3cn[nH]c23)nn1)[C@@H]1C[C@H]2CC[C@@H](C1)N2 on Target C, anyone have it?
Result: < 100 nM

Request: What is its IC50 for Target C? Entry: c1n[nH]cc1-c1ccc(-c2ccc(O[C@@H]3C[C@H]4CC[C@@H](C3)N4)nn2)c2[nH]ncc12
Result: < 100 nM

Request: Which measured IC50 belongs to CC1(C)CC(Nc2ccc(-c3ccc(-c4cn[nH]c4)c4cn[nH]c34)nn2)CC(C)(C)N1 , tested on Target C?
Result: < 100 nM

Request: Query for Target C: what IC50 does the record show for c1n[nH]cc1-c1ccc(-c2ccc(N3CC4(CCNCC4)C3)nn2)c2[nH]ncc12 ?
Result: 1000 to 10000 nM

Request: Query IC50 on Target C for c1nc2c(-c3cn[nH]c3)ccc(-c3cnc(N[C@@H]4C[C@H]5CC[C@@H](C4)N5)nn3)c2s1
Result: 100 to 1000 nM

Request: Item: c1cnn(-c2ccc(-c3ccc(N4CCC(NC5CC5)C4)nn3)c3scnc23)c1 (centres unmarked) Test system: Target C Read-out: IC50 Value: ?
Result: > 10000 nM

----------
- Tested on: HTT
- protocolText: Splicing RT-qPCR assay, HTT mRNA canonical junction (CJ) and alternative junction (AJ)
- Type: cell-based, human
- conditionDescription: Homo sapiens, RT-qPCR panel, canonical junction mRNA; compound concentration having 50% response in CJ decrease; read-out: HTT IC50 (decrease in CJ mRNA levels)
pIC50: −log10 of the molar value.
Hi there, I'd appreciate the recorded pIC50 for every entry that follows.

Request: Give its pIC50 value. Item: CN(c1ncc(-c2ccc(-n3cccn3)c3[nH]ncc23)nn1)[C@@H]1C[C@H]2CCC[C@@H](C1)N2
Result: > 7.00

Request: Would you kindly share the measured pIC50 for c1nc2c(-c3cn[nH]c3)ccc(-c3ccc(C4CCNCC4)nn3)c2s1 ?
Result: 5.00 to 6.00

Request: Item under review: c1nc2c(-c3cn[nH]c3)ccc(-c3ccc(N(C4CC4)C4C[C@H]5CCC[C@@H](C4)N5)nn3)c2s1 (stereo partly shown) . Reported pIC50?
Result: > 7.00

Request: Find the recorded pIC50 belonging to CN(c1ccc(-c2ccc(-c3cn[nH]c3)c3cn[nH]c23)nn1)C1CCNCC1 and report it.
Result: < 5.00

Request: Please look up its pIC50: [2H]C([2H])([2H])N(c1ccc(-c2ccc(-c3cn[nH]c3)c3ncsc23)nn1)C1CCNCC1
Result: 5.00 to 6.00

Request: Reported pIC50, molecule c1nc2c(-c3cn[nH]c3)ccc(-c3ccc(N4CCC45CCNCC5)nn3)c2s1 : ____
Result: 5.00 to 6.00

Request: Item under review: CN(c1ccc(-c2ccc(-c3cn[nH]c3)c3cn[nH]c23)nn1)[C@H]1C[C@]2(C)CC[C@](C)(C1)N2 . Reported pIC50?
Result: > 7.00
